Record set: pIC50 | PIK3CB (Human) | literature, multiple sources.
pIC50: −log10 of the molar value.

compound: Cc1cccc2cc(Cn3nc(-c4ccc(F)c(O)c4)c4c(N)ncnc43)n(-c3ccccc3F)c(=O)c12
pIC50: < 5.00

compound: Cc1nc2c(-c3nnc[nH]3)cc(-c3ccncc3)cc2n1-c1ccnc2c(Cl)ccc(F)c12
pIC50: 8.40

compound: COc1cccc(-c2cccc3cc([C@H](C)Nc4nc(N)ncc4C#N)n(-c4ccccc4)c(=O)c23)n1
pIC50: 5.00 to 6.00

compound: O=C(c1cnc2ccc(-c3cnc(Cl)c(NS(=O)(=O)c4ccccc4F)c3)cn12)N1CCOCC1
pIC50: > 6.00

Note to self: pIC50 of `C[C@H]1[C@H](CO)OC(=O)N1c1cc(-c2cnc(N)nc2C(F)(F)F)nc(N2CCOCC2)n1` with PIK3CB (Human) was 7.68

Here Cc1nc(NC(=O)N2CCC(C)(C)C2C(N)=O)sc1-c1ccnc(C(C)(C)C(F)(F)F)c1 (racemic) was tested on PIK3CB (Human), and its pIC50 came to 5.16
